Target: Voltage-gated potassium channel, IKs; KCNQ1(Kv7.1)/KCNE1(MinK) (Homo sapiens, UniProt P15382+P51787)
Sequence (P51787 whole entry): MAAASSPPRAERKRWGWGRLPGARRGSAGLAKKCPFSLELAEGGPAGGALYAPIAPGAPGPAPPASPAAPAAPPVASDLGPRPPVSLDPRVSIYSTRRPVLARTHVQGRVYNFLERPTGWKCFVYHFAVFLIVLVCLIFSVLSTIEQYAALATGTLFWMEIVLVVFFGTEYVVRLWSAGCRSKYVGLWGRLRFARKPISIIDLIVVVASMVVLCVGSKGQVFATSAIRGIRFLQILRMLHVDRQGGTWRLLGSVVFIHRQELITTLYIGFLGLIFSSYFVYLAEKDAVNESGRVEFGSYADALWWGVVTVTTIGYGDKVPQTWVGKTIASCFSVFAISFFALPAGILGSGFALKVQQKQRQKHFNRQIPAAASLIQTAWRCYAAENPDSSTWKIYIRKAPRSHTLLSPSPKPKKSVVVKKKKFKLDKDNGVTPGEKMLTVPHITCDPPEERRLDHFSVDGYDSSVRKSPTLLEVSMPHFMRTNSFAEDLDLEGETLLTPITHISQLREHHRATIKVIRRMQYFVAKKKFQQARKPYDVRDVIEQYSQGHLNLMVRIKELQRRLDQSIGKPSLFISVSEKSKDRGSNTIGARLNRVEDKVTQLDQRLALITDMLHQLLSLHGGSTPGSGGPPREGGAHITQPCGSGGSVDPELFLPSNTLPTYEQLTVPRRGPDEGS
Experiment: Activation of human Kv7.1/KCNE1 expressed in CHOK1 cells
pEC50: −log10 of the molar value.

{"recordSmiles": "COc1nc(N2CCC(OC)CC2)nc(OC)c1NC(=O)CC(C)(C)C", "pEC50": "< 4.00"}

###

Listed here are compounds together with their documented Papp at 2 h.
Experiment: Permeability in dog RRCK cells after 2 hrs by transwell assay
Type: ADME, cell-based, Canis lupus familiaris, MDCKII-LE
Settings: mdck, read-out: permeability
metricName: Papp at 2 h

{"recordSmiles": "CCOC(=O)Nc1ccc(NCc2ccc(F)cc2)cc1N", "valueReported": "34.2 ×10⁻⁶ cm/s"}
{"recordSmiles": "COc1nc(N2CCOCC2)nc(OC)c1NC(=O)CC(C)(C)C", "valueReported": "25.9 ×10⁻⁶ cm/s"}
{"recordSmiles": "COc1nc(N2CCC(OC)CC2)nc(OC)c1NC(=O)CC(C)(C)C", "valueReported": "24.9 ×10⁻⁶ cm/s"}
{"recordSmiles": "COc1nc(N2CCCCC2)nc(OC)c1NC(=O)CC(C)(C)C", "valueReported": "22.3 ×10⁻⁶ cm/s"}
{"recordSmiles": "COc1nc(N2CC(F)(F)C2)nc(OC)c1NC(=O)CC(C)(C)C", "valueReported": "28 ×10⁻⁶ cm/s"}
{"recordSmiles": "COc1nc(N2CCC(OC)CC2)nc(OC)c1NC(=O)CCC1CCCC1", "valueReported": "15.2 ×10⁻⁶ cm/s"}
{"recordSmiles": "COc1nc(N2CCCOCC2)nc(OC)c1NC(=O)CC(C)(C)C", "valueReported": "20.2 ×10⁻⁶ cm/s"}
